biological target: AMP-activated protein kinase, AMPK (Homo sapiens) (UniProt P54646+O43741+P54619+Q9UGJ0+Q9Y478+Q13131+Q9UGI9); conditions: at 1 µM
measure: residual activity (%)
Kindly answer with a numeric value in %, unit omitted.

Request: Data request, read-out residual activity, for "NC(=O)Nc1sc(-c2ccc(F)cc2)cc1C(N)=O"
Response: 66

Request: Data request, read-out residual activity, for "Cn1c2ccccc2c2c3c(c4c5ccccc5n(CCC#N)c4c21)CNC3=O"
Response: 19

Request: Data request, read-out residual activity, for "Cn1sc(=O)n(Cc2ccccc2)c1=O"
Response: 89

Request: Data request, read-out residual activity, for "CCOC(=O)c1c(C)[nH]c(/C=C2\C(=O)Nc3ccccc32)c1C"
Response: 85

Request: Data request, read-out residual activity, for CSc1nc(-c2ccc(F)cc2)c(-c2ccnc(NC(C)c3ccccc3)c2)[nH]1 (stereo not drawn)
Response: 80

Request: Data request, read-out residual activity, for "O=C(Nc1nc2ccccc2n1CCN1CCOCC1)c1cccc([N+](=O)[O-])c1"
Response: 79

Request: Data request, read-out residual activity, for "O=C(c1ccccc1)c1ccc(N2CCOCC2)cc1O"
Response: 89

Request: Data request, read-out residual activity, for "O=S(=O)(NCCNC/C=C/c1ccc(Br)cc1)c1cccc2cnccc12"
Response: 60

Request: Data request, read-out residual activity, for "N#C/C(=C\c1ccc(O)c(O)c1)C(=O)NCc1ccccc1"
Response: 124

Request: Data request, read-out residual activity, for "O=C1NC(=O)C(c2cn(CCCn3ccnc3)c3ccccc23)=C1Nc1ccccc1"
Response: 73

Request: Data request, read-out residual activity, for "O=C1NC(=O)C(c2c[nH]c3ccccc23)=C1c1c[nH]c2ccccc12"
Response: 66

Request: Data request, read-out residual activity, for "O=C1C(Cl)=C(N2C(=O)CCC2=O)C(=O)c2ccccc21"
Response: 99

Request: Data request, read-out residual activity, for "CC(C)c1nn(-c2c(Cl)cccc2Cl)c2nc(Cc3ccc(OCCO)cc3)[nH]c(=O)c12"
Response: 87

Request: Data request, read-out residual activity, for "N#C/C(=C1/Nc2ccccc2S1)c1ccnc(NCCc2cccnc2)n1"
Response: 99

Request: Data request, read-out residual activity, for "O=C(c1cc2cc(O)ccc2[nH]1)c1cc2cc(O)ccc2[nH]1"
Response: 13

Request: Data request, read-out residual activity, for "Nc1ncnc2c1c(-c1ccc(Oc3ccccc3)cc1)cn2C1CCCC1"
Response: 94

Request: Data request, read-out residual activity, for "CC(C)(C)n1nc(Cc2cccc3ccccc23)c2c(N)ncnc21"
Response: 89

Request: Data request, read-out residual activity, for "O=C1NC(=O)c2c1c1c3ccccc3[nH]c1n1cncc21"
Response: 38

Request: Data request, read-out residual activity, for "CC(C)(C)c1nc2c3ccc(F)cc3c3c(=O)[nH]ccc3c2[nH]1"
Response: 20

Request: Data request, read-out residual activity, for "N#Cc1c(NC(=O)c2cccc3ccccc23)sc2c1CCCC2"
Response: 98

Request: Data request, read-out residual activity, for "O=c1cc(N2CCOCC2)oc2c1ccc1ccccc12"
Response: 105

Request: Data request, read-out residual activity, for "c1ccc(-c2cnc(Nc3ccc(OCCN4CCCC4)cc3)s2)cc1"
Response: 81

Request: Data request, read-out residual activity, for "O=C(O)/C=C/c1cc(Br)c(Br)c(Br)c1Br"
Response: 94

###

biological target: Serine/threonine-protein kinase TBK1 (Homo sapiens) (UniProt Q9UHD2); conditions: at 1 µM
Sequence (Q9UHD2 whole entry): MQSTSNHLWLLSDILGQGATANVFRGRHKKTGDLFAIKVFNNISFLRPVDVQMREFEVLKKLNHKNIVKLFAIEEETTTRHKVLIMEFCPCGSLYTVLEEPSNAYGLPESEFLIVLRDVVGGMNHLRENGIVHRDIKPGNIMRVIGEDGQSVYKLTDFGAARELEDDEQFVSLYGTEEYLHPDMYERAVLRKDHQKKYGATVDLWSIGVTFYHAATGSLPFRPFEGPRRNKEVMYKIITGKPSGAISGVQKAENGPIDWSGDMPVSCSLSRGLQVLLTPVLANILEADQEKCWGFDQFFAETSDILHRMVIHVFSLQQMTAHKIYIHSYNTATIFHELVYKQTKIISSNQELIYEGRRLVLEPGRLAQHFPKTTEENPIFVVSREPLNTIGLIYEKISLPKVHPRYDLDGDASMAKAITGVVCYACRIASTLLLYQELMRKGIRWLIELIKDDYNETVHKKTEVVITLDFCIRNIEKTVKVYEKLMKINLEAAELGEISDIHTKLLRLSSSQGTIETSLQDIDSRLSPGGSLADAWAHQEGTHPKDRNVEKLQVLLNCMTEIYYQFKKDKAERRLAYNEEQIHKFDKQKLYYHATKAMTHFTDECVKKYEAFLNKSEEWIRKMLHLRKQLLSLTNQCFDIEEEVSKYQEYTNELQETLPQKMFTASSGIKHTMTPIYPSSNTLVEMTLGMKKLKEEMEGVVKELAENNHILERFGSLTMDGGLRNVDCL
Can you tell me residual activity for the items I'm about to list?
Kindly answer with a numeric value in %, unit omitted.

Request: Missing value: residual activity, Serine/threonine-protein kinase TBK1 (Homo sapiens) (UniProt Q9UHD2), entry O=C(NC(NC(=S)Nc1ccc(F)c([N+](=O)[O-])c1)C(Cl)(Cl)Cl)C(c1ccccc1)c1ccccc1 (configuration not stated) . Fill in?
Response: 96

Request: Missing value: residual activity, Serine/threonine-protein kinase TBK1 (Homo sapiens) (UniProt Q9UHD2), entry "COc1ccc(Cl)cc1NC(=O)Nc1cc(C)nc2ccccc12" . Fill in?
Response: 78

Request: Missing value: residual activity, Serine/threonine-protein kinase TBK1 (Homo sapiens) (UniProt Q9UHD2), entry "CCCCc1c(-c2ccc(O)cc2)[nH]c2nccnc12" . Fill in?
Response: 70

Request: Missing value: residual activity, Serine/threonine-protein kinase TBK1 (Homo sapiens) (UniProt Q9UHD2), entry "O=C1Nc2ccc(Cl)cc2/C1=C/c1cc(Cl)c(O)c(Cl)c1" . Fill in?
Response: 59

Request: Missing value: residual activity, Serine/threonine-protein kinase TBK1 (Homo sapiens) (UniProt Q9UHD2), entry "O=C1NC(=O)c2c1c1c3ccccc3[nH]c1n1cncc21" . Fill in?
Response: 53

Request: Missing value: residual activity, Serine/threonine-protein kinase TBK1 (Homo sapiens) (UniProt Q9UHD2), entry "CC(C)(C)c1nc2c3ccc(F)cc3c3c(=O)[nH]ccc3c2[nH]1" . Fill in?
Response: 15

Request: Missing value: residual activity, Serine/threonine-protein kinase TBK1 (Homo sapiens) (UniProt Q9UHD2), entry "CN(C)S(=O)(=O)c1ccc2c(c1)/C(=C/c1cc3c([nH]1)CCCC3)C(=O)N2" . Fill in?
Response: 74

Request: Missing value: residual activity, Serine/threonine-protein kinase TBK1 (Homo sapiens) (UniProt Q9UHD2), entry "COc1cc2nccc(Oc3ccc(NC(=O)Nc4cc(C)on4)c(Cl)c3)c2cc1OC" . Fill in?
Response: 82

Request: Missing value: residual activity, Serine/threonine-protein kinase TBK1 (Homo sapiens) (UniProt Q9UHD2), entry "O=c1cc(N2CCNCC2)oc2c(-c3ccccc3)cccc12" . Fill in?
Response: 72

Request: Missing value: residual activity, Serine/threonine-protein kinase TBK1 (Homo sapiens) (UniProt Q9UHD2), entry "CCN(CC)CCNC(=O)c1c(C)[nH]c(/C=C2\C(=O)Nc3ccc(Cl)cc32)c1C" . Fill in?
Response: 15

Request: Missing value: residual activity, Serine/threonine-protein kinase TBK1 (Homo sapiens) (UniProt Q9UHD2), entry "O=C1Cc2c([nH]c3ccc([N+](=O)[O-])cc23)-c2ccccc2N1" . Fill in?
Response: 51

Request: Missing value: residual activity, Serine/threonine-protein kinase TBK1 (Homo sapiens) (UniProt Q9UHD2), entry "O=C1Nc2ccccc2/C1=C\c1c(Cl)[nH]c2ccccc12" . Fill in?
Response: 72

###

Biological target: cGMP-dependent protein kinase 1 (Homo sapiens)
Sequence (whole entry): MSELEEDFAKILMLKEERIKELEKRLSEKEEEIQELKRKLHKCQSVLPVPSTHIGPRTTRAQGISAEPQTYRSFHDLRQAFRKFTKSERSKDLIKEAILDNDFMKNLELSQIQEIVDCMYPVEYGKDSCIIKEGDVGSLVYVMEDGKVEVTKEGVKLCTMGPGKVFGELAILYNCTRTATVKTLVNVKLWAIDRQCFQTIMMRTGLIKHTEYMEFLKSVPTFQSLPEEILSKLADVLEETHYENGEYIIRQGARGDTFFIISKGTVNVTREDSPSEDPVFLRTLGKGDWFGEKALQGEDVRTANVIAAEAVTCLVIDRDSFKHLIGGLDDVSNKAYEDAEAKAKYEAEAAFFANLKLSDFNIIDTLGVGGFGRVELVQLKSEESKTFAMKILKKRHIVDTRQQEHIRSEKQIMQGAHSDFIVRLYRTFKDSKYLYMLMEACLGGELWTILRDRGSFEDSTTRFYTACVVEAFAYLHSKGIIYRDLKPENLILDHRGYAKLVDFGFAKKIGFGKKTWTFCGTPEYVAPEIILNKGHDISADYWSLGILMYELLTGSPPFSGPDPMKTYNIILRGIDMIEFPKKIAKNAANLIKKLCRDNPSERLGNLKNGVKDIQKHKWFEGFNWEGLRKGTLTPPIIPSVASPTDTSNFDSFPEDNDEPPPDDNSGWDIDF
Settings: at 1 µM
Can you tell me residual activity for the items I'm about to list?
Kindly answer with a numeric value in %, unit omitted.

Request: Data request, read-out residual activity, for "O=C1Cc2c([nH]c3ccc(Br)cc23)-c2ccccc2N1"
Response: 83

Request: Data request, read-out residual activity, for "O=C1NC(=O)C(c2cn(CCCO)c3ncccc23)=C1c1cnccn1"
Response: 98

Request: Data request, read-out residual activity, for "CC(C)c1nn(-c2c(Cl)cccc2Cl)c2nc(Cc3ccc(OCCO)cc3)[nH]c(=O)c12"
Response: 91

Request: Data request, read-out residual activity, for "O=C(O)/C=C/c1cc(Br)c(Br)c(Br)c1Br"
Response: 82

Request: Data request, read-out residual activity, for "COc1ccc(-c2cnc3c(-c4ccsc4)cnn3c2)cc1"
Response: 99

Request: Data request, read-out residual activity, for "O=C(c1ccccc1)c1ccc(N2CCOCC2)cc1O"
Response: 93

Request: Data request, read-out residual activity, for "c1ccc(-c2cnc(Nc3ccc(OCCN4CCCC4)cc3)s2)cc1"
Response: 70

Request: Data request, read-out residual activity, for "O=c1cc(N2CCNCC2)oc2c(-c3ccccc3)cccc12"
Response: 84

Request: Data request, read-out residual activity, for "O=C1NC(=O)c2c1c1c3ccccc3[nH]c1n1cncc21"
Response: 99

Request: Data request, read-out residual activity, for "COc1cc2nccc(Oc3ccc(NC(=O)Nc4cc(C)on4)c(Cl)c3)c2cc1OC"
Response: 105

Request: Data request, read-out residual activity, for "O=C(Nc1nc2ccccc2n1CCN1CCOCC1)c1cccc([N+](=O)[O-])c1"
Response: 83
